# ASSAY DETAILS: in vitro
# CONDITION DESCRIPTION: human, CC50 (50% cell cytotoxicity concentration)
Where a name gives a salt, the structure may show the parent alone.

# COMPOUND, RELATION OPERATOR, CC50 [µM]
records = [
    ("O=C(Nc1ccc([N+](=O)[O-])cc1Cl)c1cc(Cl)ccc1O [Niclosamide]", "=", 0.27),
    ("CN1[C@@H]2CC[C@H]1C[C@@H](OC(c1ccccc1)c1ccccc1)C2 [Benztropine mesylate]", ">", 25),
    ("CC[C@H](CC#N)OC(=O)N[C@@H](C)c1cccc(NC(=O)Nc2ccc(-c3cnco3)c(OC)c2)c1", ">", 12.5),
    ("Cc1c(-c2ccc(O)cc2)n(Cc2ccc(OCCN3CCCCCC3)cc2)c2ccc(O)cc12 [Bazedoxifene HCL]", "=", 6.68),
    ("NC(=O)c1ncn([C@@H]2O[C@H](CO)[C@@H](O)[C@H]2O)n1", ">", 50),
    ("Cc1cccc(/C=N/Nc2cc(N3CCOCC3)nc(OCCc3ccccn3)n2)c1", "=", 14.4),
]
